The measurements presented in this section are drawn from patent US20250134888A1.

- assay.method.text: Permeability pH 6.5
- Format: in vitro ADME
- settings: PAMPA, Table 1
# Papp per record follows

Answered examples (3):
mol | Papp
CC1CCN(c2nc3c(c(N4CCc5n[nH]cc5C4)n2)CS(=O)(=O)C3)CC1 | > 30 ×10⁻⁶ cm/s
CCN1CCC(C(=O)Nc2cccc(-c3nnc4ccc(N5CCC(C)CC5)nn34)c2)CC1 | < 0.3 ×10⁻⁶ cm/s
Cc1nn(-c2ccc(Cl)cc2)c2ncc(C(=O)NC3CCN(C)CC3)cc12 | > 30 ×10⁻⁶ cm/s

Ask | What measured Papp goes with CC1CCN(c2ccc3nnc(-c4cccc(CN(C)C)c4)n3n2)CC1 ?
Reply | 26.5 ×10⁻⁶ cm/s

* * *

- Test system: H23
- assay.method.text: Activity in H23 cells (ME1 non-responder line)
- Assay type: cell-based
- settings: Homo sapiens, NCI-H23, Table 2, read-out: H23 IC50/EC50
pEC50: −log10 of the molar value.
experimental.readout: pEC50

mol | numeric.readout
Cc1cc(=O)c(O)c(CN2CC=C(c3ccc(F)cc3)CC2)n1C | 5.24

A = Cc1cc(=O)c(O)cn1CCN1CCCc2ccccc21
B = Cc1cc(=O)c(O)cn1CCCc1ccc(Cl)cc1
Ask | Smaller pEC50 value, A vs B ? Your answer should be the label attached to the chosen record.
Reply | A
(A: 5.07, B: 5.77)
